Values were extracted from patent US20190194179A1.

tested on: Neisseria gonorrhoeae; experiment: EC50 determination: plate-based broth growth assay (absorbance at 600 nm) of Neisseria gonorrhoeae; type: cell-based; details: absorbance 600 nm after 20 hours at 37° C./5% CO2, read-out: IC50 (Inhibitory concentration) against Neisseria gonorrhoeae
pIC50: −log10 of the molar value.
MEASUREMENT_KIND: pIC50

{"columns": ["COMPOUND", "MEASUREMENT"],
 "data": [
  ["O=C(NC1CC1)c1csc(Nc2nc3cc(C(F)(F)F)ccc3o2)n1", "≥ 6.00"],
  ["FC(F)(F)c1ccc2oc(Nc3ncns3)nc2c1", "≥ 6.00"],
  ["FC(F)(F)c1ccc2nc(Nc3ncc(N4CCOCC4)s3)oc2c1", "≥ 6.00"],
  ["Cc1nnc(Nc2nc3cc(Cl)ccc3[nH]2)o1", "≥ 6.00"],
  ["FC(F)(F)c1ccc2oc(Nc3nnco3)nc2c1", "≥ 7.00"],
  ["N#CC1CCN(Cc2nnc(Nc3nc4cc(C(F)(F)F)ccc4o3)o2)C1 (centres unmarked)", "≥ 5.00"],
  ["FC(F)(F)c1ccc2oc(Nc3nnc(C4CC4)o3)nc2c1", "≥ 7.00"],
  ["CC(C)c1nnc(Nc2nc3cc(C(F)(F)F)c(Cl)cc3o2)[nH]1", "≥ 6.00"],
  ["CCOC(=O)c1noc(Nc2nc3ccc(Cl)cc3o2)n1", "≥ 6.00"],
  ["CN(c1nc2ccccc2o1)c1nc2cnc(C(F)(F)F)cc2o1", "≥ 4.00"],
  ["NC(=O)c1nnc(Nc2nc3ccc(Cl)cc3o2)o1", "≥ 4.00"],
  ["FC(F)(F)c1cc2oc(Nc3nnco3)nc2cc1Cl", "≥ 7.00"],
  ["O=C(NC1CC1)c1coc(Nc2nc3cc(C(F)(F)F)ccc3o2)n1", "≥ 6.00"],
  ["CCOC(=O)c1nnc(Nc2nc3cc(C(F)(F)F)c(Cl)cc3o2)o1", "≥ 7.00"],
  ["FC(F)(F)c1ccc2oc(Nc3nc4ccccc4[nH]3)nc2c1", "≥ 6.00"],
  ["Cc1nnc(Nc2nc3cc(C(F)(F)F)ccc3n2C)o1", "≥ 6.00"],
  ["FC(F)(F)c1cc2nc(Nc3nnc(CN4CCCC4)[nH]3)oc2cc1Cl", "≥ 7.00"],
  ["Cc1nnc(Nc2nc3c(Cl)cc(Cl)cc3o2)o1", "≥ 7.00"],
  ["Clc1ccc2nc(Nc3nncs3)oc2c1", "≥ 6.00"],
  ["O=C(NC1CC1)c1csc(Nc2nc3cc(F)ccc3o2)n1", "≥ 6.00"]
]}
